Catalogue of Activity readings, one per entry.
- System: Rattus norvegicus
- Method Description: Antidiuretic effect measured as increase in osmolality over control in water-loaded Sprague-Dawley rat at 10 mg/kg, po
- Type: functional, Urine
Express it in %; write the number only.

// Activity lookup, compound = Cn1ccc(-c2ccc(C(=O)N3Cc4cccnc4Nc4ccccc43)c(Cl)c2)n1 , result: 134

Briefly, Activity measured for Cc1ccnn1-c1ccc(C(=O)N2Cc3cccnc3Nc3ccccc32)c(C(F)(F)F)c1 : 4

Turning now to a further record.
# Activity (compound: Cc1ccn(-c2ccc(C(=O)N3Cc4cccnc4Nc4ccccc43)c(Cl)c2)n1 ) is 172

These data points were gathered from ChEMBL document CHEMBL1149468.
